Assign switch fluorescence ratio to each entry below.
Tested on: ATP;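 also: ATP exposure 15 min at 22 °C before imaging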
Experiment: switch fluorescence ratio, 500 uM ATP over buffer (Cy3 cluster intensity, sum of 5 cycles each) (fold (ratio)); higher = stronger signal-on switching upon ATP binding; sequences stand for … in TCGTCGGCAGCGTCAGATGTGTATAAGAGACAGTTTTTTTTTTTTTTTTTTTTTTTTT…TC
Conditions: aptamer strand: ATP DNA aptamer (quencher-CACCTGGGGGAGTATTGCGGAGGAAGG + anchor), 100 nM annealed; ATP concentration: 500 uM

Q: Form field: switch fluorescence ratio recorded for TCGAGTATCG with ATP (enter value)
A: 1.02

Q: Same question for TGACAGTAAC please.
A: 1.25

Q: Same read-out for TGAAAATTCC ?
A: 1.12

Q: Now give it for ACGAGGCTCA too.
A: 1.06

Q: Follow-up item: CATATCTGAC
A: 1.16

Q: And what about the sequence AGCATATGAA ?
A: 1.02

Q: Try this sequence too: AATGAAAGGT
A: 1.01

Q: Item: CTGGGTGGGG
A: 1

Q: Then what about the sequence GCGGGTTGCC ?
A: 0.987

Q: Next sequence: ACCCAGCATC
A: 1.49

Q: Same lookup for TATGTATTCT , please.
A: 1

Q: Consider next the sequence TAAGAGACGC in the same way.
A: 1.01

Q: And what about the sequence AATAAGGCCG ?
A: 0.996

Q: Now this one: GGGGATTGTT
A: 1

Q: Again, but for GTTGGGAGCC
A: 0.99

Q: For TCGGTTTTAC then?
A: 1.03

Q: // same read-out, input: TACTGAATGT
A: 1.02

Q: Let us now turn to GGTAGGGGGG
A: 1.01

Q: // next record CAGCTAGTGT
A: 0.984

Q: Same read-out for ATCTGATAGC ?
A: 0.955

###

Kindly state switch fluorescence ratio for each of the entries shown.
Test system: ATP;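 also: ATP exposure 15 min at 22 °C before imaging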
Assay: switch fluorescence ratio, 500 uM ATP over buffer (Cy3 cluster intensity, sum of 5 cycles each) (fold (ratio)); higher = stronger signal-on switching upon ATP binding; sequences stand for … in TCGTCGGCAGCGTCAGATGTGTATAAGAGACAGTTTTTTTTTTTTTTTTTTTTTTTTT…TC
Conditions: aptamer strand: ATP DNA aptamer (quencher-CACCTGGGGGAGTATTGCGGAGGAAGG + anchor), 100 nM annealed; ATP concentration: 500 uM
API doc: respond with a numeric literal and nothing else, no unit.

Q: May I ask what switch fluorescence ratio has been recorded for AGGGGGTTCT ?
A: 1.02

Q: Repeat for the following sequence: TTATTAAATC
A: 1.01

Q: Also check AGAATGGTGT
A: 1.02

Q: Proceed to CGGCTGGTTC
A: 0.98

Q: Repeat for the following sequence: CCTGATTTGA
A: 0.989

Q: And then TAGATTAGGA , what is it?
A: 1.01

Q: And the next one, GCTTTGAATG ?
A: 1.01

Q: Same read-out for CTGATCTGTT ?
A: 0.998

Q: Now the same for CTTTGTCTTA
A: 0.999

Q: Record: GGGGAAAGAA
A: 1.02

Q: Also TTAACAAGGA , if possible.
A: 1.02

Q: Now give it for TTGAGTATGC too.
A: 1.07

Q: Moving on to the next sequence: ATTTAACGTC
A: 1.02

Q: Param item: TTGGGTTGAG
A: 0.999

Q: Param item: TTAACGGTCG
A: 1.02

Q: Likewise for CAAGTTGACC ?
A: 1.01

Q: Record: TTGTTTCGGG
A: 0.978

Q: Same question, ACCAGGTATG this time
A: 1.12

Q: Now the sequence TGCGATAAGC
A: 1.03

Q: Same again, this time with TTCTGTCCAC
A: 1.03

Q: Request: GTGTGGGTTC
A: 0.982

Q: Next: AAGGGCGTCA
A: 1.01

Q: Thanks! And AGATAGGTGT ?
A: 1.08

Q: Same thing, different sequence: TTTAAAACAG
A: 1.02

Q: Param item: ACTGTGGGCA
A: 1.01

Q: One more sequence: AGATCCCGCG
A: 1.03

Q: Also, CACTCGTGGC please.
A: 1.01

Q: AGGTGAAATT , same question.
A: 1.11

Q: Please give the result for TCGGGCGCAT too.
A: 1.27

Q: Try the sequence TTTATGCTGC
A: 1.05

Q: Note, next up: GAGATCAGTT
A: 0.981

Q: How about this sequence: AAAATCTTAG
A: 1

Q: Check CATGACTAGA too.
A: 0.981

Q: Subsequent entry: GATGAGTTAG
A: 0.973

Q: What about this sequence? GCGAAAGGGT
A: 1

Q: What about this sequence? TAACGTAACA
A: 1.26

Q: Also need ACGATGACAC , thanks.
A: 1.29

Q: What about this sequence? CGTTGCTATG
A: 1.01

Q: Now this one: GCAAGTCATG
A: 1.03

Q: Same again, this time with TTTACAAAGT
A: 0.994

Q: For TCTAGGCCTC then?
A: 1.02

Q: Now the same for GCGTTTTGTC
A: 0.962

Q: Same lookup for ATGGGGTCAG , please.
A: 0.993
